What IC50 was measured for each of the following?
target: Melanocortin receptor 3 (Homo sapiens)
Sequence (P41968 whole entry): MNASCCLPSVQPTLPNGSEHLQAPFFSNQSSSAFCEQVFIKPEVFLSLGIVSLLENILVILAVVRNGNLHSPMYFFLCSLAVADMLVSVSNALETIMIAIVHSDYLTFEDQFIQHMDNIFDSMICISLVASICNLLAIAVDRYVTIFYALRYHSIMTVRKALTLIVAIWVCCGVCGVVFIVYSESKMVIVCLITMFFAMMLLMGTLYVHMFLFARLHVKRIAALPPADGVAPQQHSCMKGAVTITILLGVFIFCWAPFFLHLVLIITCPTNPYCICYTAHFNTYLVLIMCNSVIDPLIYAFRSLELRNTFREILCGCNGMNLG
Square brackets hold non-standard residues; d marks the D form. Peptide text beside a SMILES is read from it. * marks the point of attachment. Bip = N[C@@H](Cc1ccc(-c2ccccc2)cc1)C(=O)O; dPhe(4-I) = N[C@H](Cc1ccc(I)cc1)C(=O)O; 4Pal = N[C@@H](Cc1ccncc1)C(=O)O; Tic = O=C(O)[C@@H]1Cc2ccccc2CN1; Octanoyl = CCCCCCCC(=O)*
One number for each entry, in µM.

molecule="CC(=O)N[C@@H](Cc1c[nH]cn1)C(=O)N[C@H](Cc1ccc(I)cc1)C(=O)N[C@@H](CCCNC(=N)N)C(=O)N1Cc2ccccc2C[C@H]1C(N)=O (Ac-H[dPhe(4-I)]R[Tic]-NH2)" study_target="Melanocortin receptor 3 (Homo sapiens)" readout_number=0.29
molecule="CC(=O)N[C@@H](Cc1ccncc1)C(=O)N[C@H](Cc1ccc(I)cc1)C(=O)N[C@@H](CCCNC(=N)N)C(=O)N[C@@H](Cc1c[nH]c2ccccc12)C(N)=O (Ac-[4Pal][dPhe(4-I)]RW-NH2)" study_target="Melanocortin receptor 3 (Homo sapiens)" readout_number=0.007

// input: 2 molecules below; output: IC50 for each
1. CCCCCCCC(=O)N[C@@H](Cc1cnc[nH]1)C(=O)N[C@H](Cc1ccccc1)C(=O)N[C@@H](CCCNC(=N)N)C(=O)N[C@@H](Cc1ccc(-c2ccccc2)cc1)C(N)=O (Octanoyl-H[dF]R[Bip]-NH2)
2. CC(=O)N[C@@H](Cc1cnc[nH]1)C(=O)N[C@H](Cc1ccccc1)C(=O)N[C@@H](CCCN=C(N)N)C(=O)N[C@@H](Cc1c[nH]c2ccccc12)C(N)=O

A)
1. 0.05
2. 0.56

----------
target: Mu-type opioid receptor (Homo sapiens); test: Agonist activity at MOR (unknown origin); type: functional
Sequence (P35372 whole entry): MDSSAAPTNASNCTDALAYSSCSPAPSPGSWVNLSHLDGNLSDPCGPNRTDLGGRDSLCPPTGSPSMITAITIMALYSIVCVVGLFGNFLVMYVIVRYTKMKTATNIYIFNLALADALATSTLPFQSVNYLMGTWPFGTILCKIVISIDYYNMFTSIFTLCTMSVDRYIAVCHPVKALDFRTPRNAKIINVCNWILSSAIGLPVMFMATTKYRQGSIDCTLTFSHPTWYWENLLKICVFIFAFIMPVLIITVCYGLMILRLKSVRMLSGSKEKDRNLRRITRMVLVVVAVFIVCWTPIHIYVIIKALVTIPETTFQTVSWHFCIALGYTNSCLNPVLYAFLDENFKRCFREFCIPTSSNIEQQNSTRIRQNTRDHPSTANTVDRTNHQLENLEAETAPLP
Square brackets hold non-standard residues; d marks the D form. Peptide text beside a SMILES is read from it. Sar = CNCC(=O)O
Kindly state pEC50 for each of the entries shown.
Numbers only, as −log10 of the molar value.

compound="CN(CC(=O)O)C(=O)[C@H](Cc1ccccc1)NC(=O)[C@@H](CCCN=C(N)N)NC(=O)[C@@H](N)Cc1ccc(O)cc1 (H-Y[dR]F[Sar]-OH)" study_target="Mu-type opioid receptor (Homo sapiens)" measured_endpoint=pEC50 readout_number=7.05

Now examine the next entry.
Q) Look up pEC50 for this compound: N=C(N)NCCC[C@@H]1C(=O)N[C@@H](Cc2ccccc2)C(=O)N(CC(N)=O)CCNC(=O)NCCCCCCN1C(=O)[C@@H](N)Cc1ccc(O)cc1 (mixture of isomers)
A) 7.34

----------
assay: Inhibition of GABA-A receptor (unknown origin); design: species or system Homo sapiens
Measured endpoint: IC50 (nM)
Numbers only, in nM.

compound_structure_string=N[C@H]1C[C@@H](C(=O)O)C[C@@H]1F u=nM readout_number=50

Turning now to a further record.
Q) Given the compound "N[C@H]1C=C(C(=O)O)C[C@@H]1F" , what is its reported IC50?
A) 20

Values compiled from ChEMBL document CHEMBL6083278.
